System: PC-3 cells
Test details: MTT assay of cell proliferation, PC-3 cells
Type: cell-based
Applied conditions: Homo sapiens, 72 h, read-out: IC50 inhibiting cell proliferation
Measured parameter: pIC50
Scale: negative log10 of molar concentration, which is what pIC50 denotes.

Query block: Name the recorded pIC50 for COc1ccc2cc1Oc1ccc(cc1)C[C@H]1c3cc(c(OC)cc3CCN1C)Oc1c(O)c(OC)cc3c1[C@H](C2)N(C)CC3 .
Result block: 5.14

###

Tested system: purified human erythrocyte 20S proteasome (Homo sapiens)
Measured parameter: Ki (µM)
Give the quantity in µM, number only.

Query block: # Ki lookup, item COc1ccc2cc1Oc1ccc(cc1)C[C@H]1c3cc(c(OC)cc3CCN1C)Oc1c(O)c(OC)cc3c1[C@H](C2)N(C)CC3 [fangchinoline]
Result block: 357

The origin of these recorded values is paper PMC4626104.
